Documented Normalized cell viability across a set of compounds
# Tested on: THP-1 cells
# protocolDetails: Cell viability assay (CellTiter Clo) in THP-1 cells
# Type: cell-based, Human
# settings: THP-1 cells, 20 μM of each compound, co-treated with cGAMP (1 μg/ml)
experimentalEndpoint: Normalized cell viability

COc1ccc(-c2cc(C(=O)c3ccc(C(F)(F)F)cc3)n3ccccc23)cc1: 1.24
CC(=O)c1cc(-c2ccc(N(C)C)cc2)c2cc(C(F)(F)F)ccn12: 1.28
CCN(CC)c1ccc(C(=O)c2cc(-c3ccccc3)c3cc(C(F)(F)F)ccn23)cc1: 1.17
CC(=O)c1ccn2c(C(C)=O)cc(-c3ccc(C(F)(F)F)cc3)c2c1: 0.46
COc1ccc(C(=O)c2cc(-c3ccccc3)c3cc(C(F)(F)F)ccn23)cc1: 1.14
CCN(CC)c1ccc(C(=O)c2cc(-c3ccc(C(C)=O)cc3)c3ccccn23)cc1: 1.40
COc1ccc(C(=O)c2cc(-c3ccc(OC)cc3)c3cc(C(F)(F)F)ccn23)cc1: 1.30
COc1ccc(-c2cc(C(C)=O)n3ccc(C(C)=O)cc23)cc1: 1.17
CC(=O)c1ccn2c(C(C)=O)cc(-c3ccccc3)c2c1: 1.22
CC(=O)c1ccc(-c2cc(C(=O)c3ccccc3)n3ccccc23)cc1: 1.12
CC(=O)c1ccn2c(C(=O)c3ccccc3)cc(-c3ccncc3)c2c1: 1.11
CCN(CC)c1ccc(C(=O)c2cc(-c3ccc(C(C)=O)cc3)c3cc(C(C)=O)ccn23)cc1: 1.25
CC(=O)c1cc(-c2ccccc2)c2cc(C(F)(F)F)ccn12: 1.25
CCN(CC)c1ccc(C(=O)c2cc(-c3ccc(N(C)C)cc3)c3cc(C(C)=O)ccn23)cc1: 1.17
CCN(CC)c1ccc(-c2cc(C(=O)c3ccccc3)n3ccccc23)cc1: 1.19
CC(=O)c1ccn2c(C(=O)c3ccccc3)cc(-c3ccc(C(=O)O)cc3)c2c1: 1.32
CC(=O)c1ccn2c(C(=O)c3ccccc3)cc(-c3ccc(N)cc3)c2c1: 0.98
O=C(c1ccccc1)c1cc(-c2ccncc2)c2ccccn12: 1.34
CN(C)c1ccc(-c2cc(C(=O)c3ccccc3)n3ccc(C(F)(F)F)cc23)cc1: 1.21
CN(C)c1ccc(-c2cc(C(=O)c3ccccc3)n3ccccc23)cc1: 1.30
CCN(CC)c1ccc(C(=O)c2cc(-c3ccc(C(F)(F)F)cc3)c3cc(C(C)=O)ccn23)cc1: 1.27
COc1ccc(-c2cc(C(=O)c3ccc(C(F)(F)F)cc3)n3ccc(C(F)(F)F)cc23)cc1: 1.05
CCCN(CCC)c1ccc(-c2cc(C(=O)c3ccccc3)n3ccccc23)cc1: 1.01
O=C(c1ccccc1)c1cc(-c2ccccc2)c2cc(C(F)(F)F)ccn12: 1.06
COc1ccc(-c2cc(C(=O)c3ccc(C(F)(F)F)cc3)n3ccc(C(C)=O)cc23)cc1: 1.21
CN(C)c1ccc(-c2cc(C(=O)c3ccc(C(F)(F)F)cc3)n3ccccc23)cc1: 1.22
CC(=O)c1ccn2c(C(=O)c3ccccc3)cc(-c3ccc(C(F)(F)F)cc3)c2c1: 1.21
COc1ccc(C(=O)c2cc(-c3ccc(C(C)=O)cc3)c3ccccn23)cc1: 1.15
